- targetOrTestSystem: 5-hydroxytryptamine receptor 2A (Homo sapiens)
- Sequence (P28223 whole entry): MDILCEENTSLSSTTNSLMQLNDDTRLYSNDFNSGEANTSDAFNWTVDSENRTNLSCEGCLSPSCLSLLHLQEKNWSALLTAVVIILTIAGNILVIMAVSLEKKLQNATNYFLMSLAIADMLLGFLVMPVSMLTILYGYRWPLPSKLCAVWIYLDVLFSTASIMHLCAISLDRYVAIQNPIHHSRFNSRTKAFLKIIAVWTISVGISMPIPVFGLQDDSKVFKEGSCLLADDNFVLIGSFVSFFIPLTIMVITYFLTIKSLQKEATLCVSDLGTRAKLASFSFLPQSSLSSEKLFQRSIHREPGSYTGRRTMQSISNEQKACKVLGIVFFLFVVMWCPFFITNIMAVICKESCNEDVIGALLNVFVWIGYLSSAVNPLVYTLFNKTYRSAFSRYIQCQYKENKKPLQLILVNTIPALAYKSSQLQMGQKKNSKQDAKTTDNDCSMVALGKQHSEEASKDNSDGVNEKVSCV
- testMethodNotes: Binding to human 5HT2A receptor expressed in CHO cells relative to 5HT
- Type: cell-based
Param label: returns t when Efficacy < 60%, returns f otherwise, including exact equality.

Consider C[C@@H](Cn1ccc2ccc3ncccc3c21)NCc1ccc2ccccc2c1 . Does its Efficacy lie strictly below 60%?
t

Consider C[C@H](N)Cn1ccc2cc(F)c(Cl)cc21 . Does its Efficacy lie strictly below 60%?
f

Consider C[C@H](N)Cn1ccc2cc(Cl)c3ncccc3c21 . Does its Efficacy lie strictly below 60%?
f

Consider C[C@@H](Cn1ccc2ccc3ncccc3c21)NCC1CCCCC1 . Does its Efficacy lie strictly below 60%?
t

Consider C[C@@H](Cn1ccc2ccc3ncccc3c21)NCc1ccc2c(c1)OCO2 . Does its Efficacy lie strictly below 60%?
f

Consider Clc1cccc(N2CCNCC2)c1 . Does its Efficacy lie strictly below 60%?
t

Consider NCCc1c[nH]c2ccc(O)cc12 . Does its Efficacy lie strictly below 60%?
f

Consider C[C@H](N)Cn1ccc2ccc3ccncc3c21 . Does its Efficacy lie strictly below 60%?
f

Consider C[C@H](N)Cn1ccc2ccc3ncccc3c21 . Does its Efficacy lie strictly below 60%?
f

Consider COc1ccccc1CN[C@@H](C)Cn1ccc2ccc3ncccc3c21 . Does its Efficacy lie strictly below 60%?
t

Consider C[C@@H](Cn1ccc2ccc3ncccc3c21)NCc1ccccc1 . Does its Efficacy lie strictly below 60%?
t

Consider Cc1ccccc1CN[C@@H](C)Cn1ccc2ccc3ncccc3c21 . Does its Efficacy lie strictly below 60%?
t

Consider C=CCN[C@@H](C)Cn1ccc2ccc3ncccc3c21 . Does its Efficacy lie strictly below 60%?
t

Consider C[C@H](N)Cn1ccc2ccc3cnccc3c21 . Does its Efficacy lie strictly below 60%?
f

Consider C[C@H](N)Cn1ccc2ccc3cccnc3c21 . Does its Efficacy lie strictly below 60%?
t

Consider C[C@@H](Cn1ccc2ccc3ncccc3c21)NCc1ccccc1Cl . Does its Efficacy lie strictly below 60%?
t

Each recorded value in this set is attributed to ChEMBL document CHEMBL1149379.
